tested on: Mycobacterium intracellulare; test: Antibacterial activity against Mycobacterium intracellular ATCC 23068 at 20 ug/ml by CLSI method; assay type: functional, organism-based
Calls of active or inactive are those of the source. The rule behind the calls is not given here.
MEASURE: MBC

# input Hello, I am looking for reported MBC with Mycobacterium intracellulare for COc1cc(NC(C)CCCNCC(=O)NCCCC(C)Nc2cc(OC)cc3ccc(C(C)(C)C)nc23)c2nc(C(C)(C)C)ccc2c1.Cl.Cl (stereo not drawn) . Could you help?
# output inactive

# input Note, next up: COc1cc(NC(C)CCCNC(=O)NC(CCCNC(=N)N)C(=O)NCCCC(C)Nc2cc(OC)cc3cccnc23)c2ncccc2c1 (single isomer, unassigned; 39)
# output inactive

# input COc1cc(NC(C)CCCNC(=O)c2ccncc2C(=O)NCCCC(C)Nc2cc(OC)cc3ccc(C(C)(C)C)nc23)c2nc(C(C)(C)C)ccc2c1.Cl (stereo not drawn) ?
# output inactive
